- test_details: Transmission electron microscope (negative staining) of peptide assemblies
- conditions_used: TEM, negative staining with uranyl acetate, 120 kV; line of the table gives 120 mM
Where a SMILES comes first, the peptide text is derived from it.
readout_kind: Morphology

Solved entries (count: 5):
stdin: Tell me measured Morphology for CC[C@H](C)[C@H](NC(=O)[C@H](Cc1ccccc1)NC(=O)[C@@H](NC(=O)[C@@H](N)Cc1c[nH]c2ccccc12)C(C)C)C(=O)O [WVFI] (H-WVFI-OH) please.
stdout: aggregates

stdin: Tell me measured Morphology for CC(C)[C@H](NC(=O)[C@H](C)NC(=O)[C@@H](N)[C@@H](C)O)C(=O)N[C@@H](Cc1ccccc1)C(=O)O [TAVF] (H-TAVF-OH) please.
stdout: sheet

stdin: Tell me measured Morphology for CC(C)[C@H](NC(=O)[C@@H](N)CC(N)=O)C(=O)N[C@@H](Cc1ccccc1)C(=O)N[C@@H](Cc1c[nH]cn1)C(=O)O [NVFH] (H-NVFH-OH) please.
stdout: aggregates

stdin: Tell me measured Morphology for C[C@@H](O)[C@H](N)C(=O)N[C@H](C(=O)N[C@H](C(=O)N[C@H](C(=O)O)[C@@H](C)O)[C@@H](C)O)[C@@H](C)O [TTTT] (H-TTTT-OH) please.
stdout: aggregates

stdin: Tell me measured Morphology for C[C@H](NC(=O)[C@H](Cc1ccc(O)cc1)NC(=O)[C@@H](N)Cc1ccccc1)C(=O)N[C@@H](Cc1ccc(O)cc1)C(=O)O [FYAY] (H-FYAY-OH) please.
stdout: sheet

Next:
stdin: Tell me measured Morphology for CC(C)C[C@H](N)C(=O)NCC(=O)N[C@H](C(=O)N[C@@H](Cc1ccccc1)C(=O)O)C(C)C [LGVF] (H-LGVF-OH) please.
stdout: fibre

stdin: Tell me measured Morphology for CSCC[C@H](NC(=O)[C@@H](N)CCSC)C(=O)N[C@@H](Cc1ccc(O)cc1)C(=O)N[C@@H](Cc1ccc(O)cc1)C(=O)O [MMYY] (H-MMYY-OH) please.
stdout: particle

stdin: Tell me measured Morphology for CSCC[C@H](NC(=O)[C@H](CCSC)NC(=O)[C@H](Cc1ccccc1)NC(=O)[C@@H](N)C(C)C)C(=O)O [VFMM] (H-VFMM-OH) please.
stdout: fibre

stdin: Tell me measured Morphology for O=C(O)[C@H](Cc1ccc(O)cc1)NC(=O)[C@H](Cc1c[nH]c2ccccc12)NC(=O)[C@H](Cc1c[nH]c2ccccc12)NC(=O)[C@@H]1CCCN1 [PWWY] (H-PWWY-OH) please.
stdout: aggregates

stdin: Tell me measured Morphology for NC(=O)CC[C@H](NC(=O)[C@H](CCC(N)=O)NC(=O)[C@H](CCC(N)=O)NC(=O)[C@@H](N)CCC(N)=O)C(=O)O [QQQQ] (H-QQQQ-OH) please.
stdout: sheet

stdin: Tell me measured Morphology for CC(C)[C@H](N)C(=O)N[C@@H](CO)C(=O)N[C@@H](Cc1c[nH]c2ccccc12)C(=O)N[C@@H](Cc1ccc(O)cc1)C(=O)O [VSWY] (H-VSWY-OH) please.
stdout: particle

stdin: Tell me measured Morphology for C[C@H](NC(=O)[C@@H](N)CS)C(=O)N[C@@H](Cc1ccc(O)cc1)C(=O)N[C@@H](Cc1c[nH]c2ccccc12)C(=O)O [CAYW] (H-CAYW-OH) please.
stdout: aggregates

stdin: Tell me measured Morphology for CC[C@H](C)[C@H](NC(=O)[C@H](Cc1ccccc1)NC(=O)[C@H](Cc1c[nH]c2ccccc12)NC(=O)[C@@H](N)CC(C)C)C(=O)O [LWFI] (H-LWFI-OH) please.
stdout: aggregates

stdin: Tell me measured Morphology for N[C@@H](CS)C(=O)N[C@@H](Cc1c[nH]c2ccccc12)C(=O)N[C@@H](Cc1c[nH]cn1)C(=O)N[C@@H](Cc1ccc(O)cc1)C(=O)O [CWHY] (H-CWHY-OH) please.
stdout: aggregates

stdin: Tell me measured Morphology for CC(C)C[C@H](NC(=O)[C@@H](N)C(C)C)C(=O)N[C@H](C(=O)N[C@H](C(=O)O)C(C)C)C(C)C [VLVV] (H-VLVV-OH) please.
stdout: sheet

stdin: Tell me measured Morphology for CC(C)C[C@H](N)C(=O)N[C@H](C(=O)N1CCC[C@H]1C(=O)N[C@@H](Cc1ccccc1)C(=O)O)C(C)C [LVPF] (H-LVPF-OH) please.
stdout: aggregates

stdin: Tell me measured Morphology for CC(C)C[C@H](NC(=O)[C@H](C)NC(=O)[C@@H](N)CC(C)C)C(=O)N[C@@H](CCCNC(=N)N)C(=O)O [LALR] (H-LALR-OH) please.
stdout: aggregates

----------
As shown below, each of these compounds has a reported GELATION value.
- test_details: Peptide hydrogel formation, vial-inverting method
- Format: physicochemical
- Design: key: 0: no hydrogel; 1: hydrogel
- conditions_used: peptide concentration 120 mM; vial-inverting method; 1 = hydrogel, 0 = no hydrogel
Where a SMILES comes first, the peptide text is derived from it.
Answer with a bare number; do not write a unit.

stdin: Tell me measured GELATION for CSCC[C@H](NC(=O)[C@H](CC(N)=O)NC(=O)[C@@H](NC(=O)CN)C(C)C)C(=O)O [GVNM] (H-GVNM-OH) please.
stdout: 0

stdin: Tell me measured GELATION for CC(C)[C@H](N)C(=O)N[C@@H](Cc1ccc(O)cc1)C(=O)N[C@H](C(=O)N[C@@H](Cc1ccccc1)C(=O)O)[C@@H](C)O [VYTF] (H-VYTF-OH) please.
stdout: 0

stdin: Tell me measured GELATION for CSCC[C@H](NC(=O)[C@@H](N)CCCCN)C(=O)N[C@@H](CC(C)C)C(=O)N[C@@H](Cc1ccccc1)C(=O)O [KMLF] (H-KMLF-OH) please.
stdout: 0

stdin: Tell me measured GELATION for CSCC[C@H](NC(=O)[C@@H](N)CCSC)C(=O)N[C@@H](Cc1ccc(O)cc1)C(=O)N[C@@H](Cc1ccc(O)cc1)C(=O)O [MMYY] (H-MMYY-OH) please.
stdout: 0

Next:
stdin: Tell me measured GELATION for N[C@@H](Cc1c[nH]c2ccccc12)C(=O)N[C@@H](Cc1ccccc1)C(=O)N[C@@H](Cc1c[nH]cn1)C(=O)N1CCC[C@H]1C(=O)O [WFHP] (H-WFHP-OH) please.
stdout: 0

stdin: Tell me measured GELATION for CC(C)[C@H](N)C(=O)N[C@@H](CO)C(=O)N[C@@H](Cc1c[nH]c2ccccc12)C(=O)N[C@@H](Cc1ccc(O)cc1)C(=O)O [VSWY] (H-VSWY-OH) please.
stdout: 0

----------
- test_details: Peptide hydrogel formation, vial-inverting method
- Assay type: physicochemical
- conditions_used: 120 mM peptide (highest tested) in ultrapure water; pH 6.5-8.5 (1 N NaOH), ultrasonication, standing 48 h; vial-inverting method; precipitate, sol, suspension = no gel
- Source text: After validating the efficiency of APHC in predicting tetrapeptide hydrogels, we detailed the phase state of 165 synthesized tetrapeptides and the observed assembly behavior in an aqueous solution. This work defines hydrogel formation as a self-supporting, non-flowing mixture of water and hydrogelator by the vial-inverting method. […]
Where a SMILES comes first, the peptide text is derived from it.
readout_kind: State

stdin: Tell me measured State for N[C@@H](CS)C(=O)N[C@@H](Cc1c[nH]c2ccccc12)C(=O)N[C@@H](Cc1c[nH]cn1)C(=O)N[C@@H](Cc1ccc(O)cc1)C(=O)O [CWHY] (H-CWHY-OH) please.
stdout: gel

stdin: Tell me measured State for N[C@@H](Cc1c[nH]cn1)C(=O)N[C@@H](Cc1c[nH]cn1)C(=O)N[C@@H](Cc1c[nH]cn1)C(=O)N[C@@H](Cc1c[nH]cn1)C(=O)O [HHHH] (H-HHHH-OH) please.
stdout: sol

----------
As shown below, each of these molecules has a reported GELATION value.
- test_details: Peptide hydrogel formation, vial-inverting method
- Type: physicochemical
- Set-up: key: 0: no hydrogel; 1: hydrogel
- conditions_used: peptide concentration 120 mM; vial-inverting method; 1 = hydrogel, 0 = no hydrogel
- From the text: After validating the efficiency of APHC in predicting tetrapeptide hydrogels, we detailed the phase state of 165 synthesized tetrapeptides and the observed assembly behavior in an aqueous solution. This work defines hydrogel formation as a self-supporting, non-flowing mixture of water and hydrogelator by the vial-inverting method. […]
Where a SMILES comes first, the peptide text is derived from it.
Answer with a bare number; do not write a unit.

Solved entries (count: 2):
stdin: Tell me measured GELATION for N[C@@H](CC(=O)O)C(=O)N[C@@H](CC(=O)O)C(=O)N[C@@H](CC(=O)O)C(=O)N[C@@H](CC(=O)O)C(=O)O [DDDD] (H-DDDD-OH) please.
stdout: 0

stdin: Tell me measured GELATION for N[C@@H](Cc1ccc(O)cc1)C(=O)N[C@@H](Cc1ccc(O)cc1)C(=O)N[C@@H](Cc1ccc(O)cc1)C(=O)N[C@@H](Cc1ccc(O)cc1)C(=O)O [YYYY] (H-YYYY-OH) please.
stdout: 0

Below: the item to evaluate.
stdin: Tell me measured GELATION for C[C@@H](O)[C@H](N)C(=O)NCC(=O)N[C@@H](Cc1ccccc1)C(=O)N[C@@H](Cc1ccccc1)C(=O)O [TGFF] (H-TGFF-OH) please.
stdout: 1
